experiment: Tmax in monkey at 25 mg/kg, po; type: ADME, organism-based, Macaca mulatta; conditions: rhesus monkey, in vivo
experimental-endpoint: Tmax (h)
Please respond with the number in h and leave the unit unwritten.

Report Tmax, nothing else, for this compound: N#Cc1cccc([C@@H](NCC2CC2)c2ccc(F)c(NC(=O)c3cc(C(F)(F)F)nn3-c3cccc(CN)c3)c2)c1 (stereo in doubt) [BEROTRALSTAT]
4.7

###

experiment: Plasma concentration in rat at 5 mg/kg, po after 24 hrs; type: ADME, organism-based
experimental-endpoint: concentration at 24 h (ng/mL)
// units = ng/mL; emit number, no label

Provide concentration at 24 h value for the following molecule: NCc1cccc(-n2nc(C(F)(F)F)cc2C(=O)Nc2cc(C(NCC3CC3)c3ccccc3)ccc2F)c1 (stereo in doubt; 25)
29

###

assay: AUC(0 to 24 hrs) in rat at 3 mg/kg, iv; type: ADME, organism-based; design: time < 24 hr, route intravenous, dose 3 mg/kg; settings: in vivo
experimental-endpoint: AUC(0-t) at 24 h (ng·h/mL)
# value in ng·h/mL; strip the unit string

Complete the entry with AUC(0-t) at 24 h for N#Cc1cccc([C@@H](NCC2CC2)c2ccc(F)c(NC(=O)c3cc(C(F)(F)F)nn3-c3cccc(CN)c3)c2)c1 (stereo in doubt)
1620

###

molecular target: Tissue-type plasminogen activator (Homo sapiens); assay: Inhibition of recombinant human tPA using H-D-Isoleucyl-L-prolyl-L-arginine p-nitroaniline dihydrochloride as substrate measured after 5 mins by plate reader analysis
Sequence (P00750 whole entry): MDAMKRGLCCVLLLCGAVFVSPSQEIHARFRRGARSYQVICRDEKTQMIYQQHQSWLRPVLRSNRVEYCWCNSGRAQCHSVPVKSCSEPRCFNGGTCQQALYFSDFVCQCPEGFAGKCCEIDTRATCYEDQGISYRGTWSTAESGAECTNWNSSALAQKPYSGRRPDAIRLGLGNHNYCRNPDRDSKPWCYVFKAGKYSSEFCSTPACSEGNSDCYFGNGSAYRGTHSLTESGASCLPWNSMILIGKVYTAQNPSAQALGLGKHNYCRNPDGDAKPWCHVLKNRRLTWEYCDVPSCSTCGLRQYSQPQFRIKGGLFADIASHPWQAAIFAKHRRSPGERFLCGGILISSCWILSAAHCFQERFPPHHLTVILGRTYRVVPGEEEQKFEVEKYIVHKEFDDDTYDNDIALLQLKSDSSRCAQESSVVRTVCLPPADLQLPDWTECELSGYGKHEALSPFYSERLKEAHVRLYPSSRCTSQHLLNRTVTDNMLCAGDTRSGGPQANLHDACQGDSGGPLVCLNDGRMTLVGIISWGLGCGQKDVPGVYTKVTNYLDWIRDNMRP
experimental-endpoint: IC50

Read off the recorded IC50 for N#Cc1cccc([C@@H](NCC2CC2)c2ccc(F)c(NC(=O)c3cc(C(F)(F)F)nn3-c3cccc(CN)c3)c2)c1 (stereo in doubt) [BEROTRALSTAT]
> 50 µM

###

test: AUC(0 to 96 hrs) in rat at 3 mg/kg, iv; assay type: ADME, organism-based; parameters: time < 96 hr, route intravenous, dose 3 mg/kg; details: in vivo
experimental-endpoint: AUC(0-t) at 96 h (ng·h/mL)
All answers are understood in ng·h/mL, so give the number only.

Tell me its AUC(0-t) at 96 h given N#Cc1cccc([C@@H](NCC2CC2)c2ccc(F)c(NC(=O)c3cc(C(F)(F)F)nn3-c3cccc(CN)c3)c2)c1 (stereo in doubt) as the entry.
1860

###

assay: Cmax in rat at 5 mg/kg, po; type: ADME, organism-based; set-up: route oral, dose 5 mg/kg; details: in vivo
experimental-endpoint: Cmax

Here is how some compounds turned out for Cmax.
NCc1cccc(-n2nc(C(F)(F)F)cc2C(=O)Nc2cc(C(NCC3CC3)c3cccnc3)ccc2F)c1 (centres undefined) : 58 ng/mL
NCc1cccc(-n2nc(C(F)(F)F)cc2C(=O)Nc2cc(C(NCC3CC3)c3ccccc3)ccc2F)c1 (stereo in doubt; 25) : 51 ng/mL
NCc1cccc(-n2nc(C(F)(F)F)cc2C(=O)Nc2cc(C(NCC3CC3)c3ccncc3)ccc2F)c1 (centres undefined) : 22 ng/mL

Please look at the following compound next.
# return recorded Cmax for input NCc1cccc(-n2nc(C(F)(F)F)cc2C(=O)Nc2cc(C(NCC3CC3)c3ccccn3)ccc2F)c1 (centres undefined)
45 ng/mL

###

target: Plasma kallikrein (Homo sapiens, UniProt P03952); assay: Inhibition of endogenous human plasma kallikrein using Z-Phe-Arg-AMC.HCl as substrate measured after 5 mins by microplate reader analysis
Sequence (P03952 20-390 limits assumed): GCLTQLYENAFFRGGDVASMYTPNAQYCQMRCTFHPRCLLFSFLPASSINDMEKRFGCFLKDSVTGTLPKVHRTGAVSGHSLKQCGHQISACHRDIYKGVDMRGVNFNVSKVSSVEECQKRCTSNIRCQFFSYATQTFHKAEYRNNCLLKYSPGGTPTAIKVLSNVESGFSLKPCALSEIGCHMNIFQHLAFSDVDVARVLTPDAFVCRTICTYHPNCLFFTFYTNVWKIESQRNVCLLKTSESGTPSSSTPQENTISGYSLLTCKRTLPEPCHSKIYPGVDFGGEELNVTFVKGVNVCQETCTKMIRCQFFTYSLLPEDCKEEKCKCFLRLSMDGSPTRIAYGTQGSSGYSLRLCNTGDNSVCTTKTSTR
Sequence (P03952 391-638 limits assumed): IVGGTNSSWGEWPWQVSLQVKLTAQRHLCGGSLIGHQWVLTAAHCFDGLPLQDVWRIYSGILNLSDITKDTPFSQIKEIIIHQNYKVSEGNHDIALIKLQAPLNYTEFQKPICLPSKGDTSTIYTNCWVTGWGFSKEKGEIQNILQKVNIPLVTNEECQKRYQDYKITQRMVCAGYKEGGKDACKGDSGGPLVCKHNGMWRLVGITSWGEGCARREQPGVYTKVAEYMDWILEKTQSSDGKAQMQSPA
experimental-endpoint: IC50 (nM)
Form entry: value (nM) — number only.

Provide measured IC50 value, entry: NCc1cccc(-n2nc(C(F)(F)F)cc2C(=O)Nc2cc(C(NCC3CC3)c3ccncc3)ccc2F)c1 (stereo not given)
16.7

Using the record for NCc1cccc(-n2nc(C(F)(F)F)cc2C(=O)Nc2cc(C(NCC3CC3)c3cccnc3)ccc2F)c1 (stereo not given) , state its measured IC50.
10

Report IC50 for NCc1cccc(-n2nc(C(F)(F)F)cc2C(=O)Nc2cccc(C(OCC3CC3)c3ccccc3)c2)c1 (stereo not given)
300

Look up and report measured IC50 for this entry: CCOC(c1ccccc1)c1ccc(F)c(NC(=O)c2cc(C(F)(F)F)nn2-c2cccc(CN)c2)c1 (stereo not given)
1280

###

assay: Cmax in monkey at 25 mg/kg, po; assay type: ADME, organism-based, Macaca mulatta; design: route oral, dose 25 mg/kg; details: rhesus monkey, in vivo
experimental-endpoint: Cmax
Reply with the number, then its unit.

Specify reported Cmax for the compound shown: N#Cc1cccc([C@@H](NCC2CC2)c2ccc(F)c(NC(=O)c3cc(C(F)(F)F)nn3-c3cccc(CN)c3)c2)c1 (stereo in doubt) [BEROTRALSTAT]
342 ng/mL

###

assay: Clearance in monkey at 25 mg/kg, po; assay type: ADME, organism-based, Macaca mulatta; conditions: rhesus monkey, in vivo
experimental-endpoint: CL/F (mL/min/kg)
Lab book: enter the figure in mL/min/kg, no units written.

Supply CL/F value. Item: N#Cc1cccc([C@@H](NCC2CC2)c2ccc(F)c(NC(=O)c3cc(C(F)(F)F)nn3-c3cccc(CN)c3)c2)c1 (stereo in doubt)
73

###

test: Cmax in monkey at 2.5 mg/kg, iv; format: ADME, organism-based, Macaca mulatta; parameters: route intravenous, dose 2.5 mg/kg; conditions: rhesus monkey, in vivo
experimental-endpoint: Cmax (ng/mL)
Field: numeric (ng/mL). Do not append units.

Check the records and state Cmax for N#Cc1cccc([C@@H](NCC2CC2)c2ccc(F)c(NC(=O)c3cc(C(F)(F)F)nn3-c3cccc(CN)c3)c2)c1 (stereo in doubt)
673

###

test: AUC in rat at 5 mg/kg, po after 12 hrs; assay type: ADME, organism-based; design: route oral, time 12 hrs, dose 5 mg/kg; settings: in vivo
// reported AUC at 12 h for each item listed
# include the unit after the value

Look over these answered cases.
NCc1cccc(-n2nc(C(F)(F)F)cc2C(=O)Nc2cc(C(NCC3CC3)c3ccccn3)ccc2F)c1 (centres undefined) : 131 ng·h/mL
NCc1cccc(-n2nc(C(F)(F)F)cc2C(=O)Nc2cc(C(NCC3CC3)c3cccnc3)ccc2F)c1 (centres undefined) : 128 ng·h/mL
NCc1cccc(-n2nc(C(F)(F)F)cc2C(=O)Nc2cc(C(NCC3CC3)c3ccccc3)ccc2F)c1 (stereo in doubt; 25) : 493 ng·h/mL

Dear colleague, please send me the reported AUC at 12 h for NCc1cccc(-n2nc(C(F)(F)F)cc2C(=O)Nc2cc(C(NCC3CC3)c3ccncc3)ccc2F)c1 (centres undefined) when you can.
73 ng·h/mL

###

Sequence of the target: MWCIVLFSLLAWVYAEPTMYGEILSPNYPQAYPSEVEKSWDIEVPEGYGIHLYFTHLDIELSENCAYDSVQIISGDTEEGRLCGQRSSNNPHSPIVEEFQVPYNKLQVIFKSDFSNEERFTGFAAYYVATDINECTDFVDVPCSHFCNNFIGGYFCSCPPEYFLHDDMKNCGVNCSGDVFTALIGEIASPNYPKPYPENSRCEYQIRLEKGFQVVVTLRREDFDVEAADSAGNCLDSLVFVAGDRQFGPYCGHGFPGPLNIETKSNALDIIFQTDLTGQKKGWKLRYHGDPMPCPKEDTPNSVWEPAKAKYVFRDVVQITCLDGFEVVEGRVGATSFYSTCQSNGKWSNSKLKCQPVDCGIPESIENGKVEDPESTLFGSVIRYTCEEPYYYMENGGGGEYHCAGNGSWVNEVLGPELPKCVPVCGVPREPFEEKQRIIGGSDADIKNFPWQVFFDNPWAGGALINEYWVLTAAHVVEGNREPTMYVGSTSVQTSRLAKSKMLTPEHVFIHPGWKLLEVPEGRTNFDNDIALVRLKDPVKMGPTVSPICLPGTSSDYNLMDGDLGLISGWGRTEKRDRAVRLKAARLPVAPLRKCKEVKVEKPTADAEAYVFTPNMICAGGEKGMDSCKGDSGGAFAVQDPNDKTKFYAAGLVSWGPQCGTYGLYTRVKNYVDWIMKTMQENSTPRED
pIC50: −log10 of the molar value.
experimental-endpoint: pIC50

Determine its reported pIC50: N#Cc1cccc([C@@H](NCC2CC2)c2ccc(F)c(NC(=O)c3cc(C(F)(F)F)nn3-c3cccc(CN)c3)c2)c1 (stereo in doubt)
< 4.30

###

test: AUC in rat at 5 mg/kg, po after 24 hrs; assay type: ADME, organism-based; set-up: route oral, dose 5 mg/kg, time 24 hrs; details: in vivo
experimental-endpoint: AUC at 24 h (ng·h/mL)
Your answer should be a plain number; it is taken to be in ng·h/mL.

Answer with the recorded AUC at 24 h of NCc1cccc(-n2nc(C(F)(F)F)cc2C(=O)Nc2cc(C(NCC3CC3)c3ccccc3)ccc2F)c1 (stereo in doubt; 25) only.
852

###

assay: Oral bioavailability in rat at 30 mg/kg; format: ADME, organism-based; conditions: in vivo
experimental-endpoint: bioavailability

Quick one: give measured bioavailability for N#Cc1cccc([C@@H](NCC2CC2)c2ccc(F)c(NC(=O)c3cc(C(F)(F)F)nn3-c3cccc(CN)c3)c2)c1 (stereo in doubt)
33%
